Each recorded value in this set is attributed to PubChem BioAssay (NCI).

system: SK-MEL-2 melanoma; test: NCI-60 one-dose screen, 48 h; details: 10 µM unless noted
The panel holds about 83,000 compounds, 20% with a hit somewhere; the sample as a whole holds those more often. Activity calls are given as the source filed them. Rule for the calls: active = growth percent below 10; inactive = the rest.
Respond using exactly one of the listed classes: YES (active), NO (inactive)

[in] Fill in: this test's call for `CC1CCN(C(=S)SCC(=O)NC(=O)c2ccccc2)CC1` is ___
[out] NO

[in] Fill in: this test's call for `COc1ccc(Cn2cc3c(c2-c2ccccc2)CCc2cnoc2-3)cc1` is ___
[out] NO

[in] Fill in: this test's call for CC(C)N1C(=O)/C(=c2\sc3n(c2=O)C2C(NN=3)N(C)C(=O)N2C)c2ccccc21 (stereo not drawn) is ___
[out] NO

[in] Fill in: this test's call for `Cc1ccc(-c2nc(-c3cn(C)c4ncccc34)cs2)cc1` is ___
[out] YES

[in] Fill in: this test's call for `CCOC(=O)c1c(C)nc2c(c1N)/C(=C/c1ccc(OC)cc1)C(=O)N2Cc1ccccc1` is ___
[out] NO

[in] Fill in: this test's call for `O=C(CSc1nc(-c2ccccc2)cc(=O)[nH]1)Nc1nc(-c2ccccc2)cs1` is ___
[out] NO

[in] Fill in: this test's call for `CNC(=O)c1cc(Oc2ccc3c(c2)sc2nc(-c4ccc(OC)cc4)cn23)ccn1` is ___
[out] NO

[in] Fill in: this test's call for `NS(=O)(=O)c1ccc(C(=O)NN2C(=O)c3c(Br)c(Br)c(Br)c(Br)c3C2=O)cc1` is ___
[out] NO

[in] Fill in: this test's call for Cc1cccc2c1C[C@@]1(C2=O)C(c2ccc(C(C)(C)C)cc2)=NOS1=O (stereo partly drawn) is ___
[out] NO

[in] Fill in: this test's call for `CCOC(=O)C1=C(C)/C(=C\c2[nH]c(C)c(C(=O)OCC)c2C)N=C1C` is ___
[out] NO

[in] Fill in: this test's call for `Fc1cc(Nc2ccc3c(OCCCN4CCOCC4)cccc3n2)ccc1Cl` is ___
[out] NO

[in] Fill in: this test's call for `O=C(Cc1ccccc1)Nc1cccc(N=Cc2ccccc2O)c1` is ___
[out] NO

[in] Fill in: this test's call for `CCN1CCN(C(=O)[C@]23CC[C@@H](C)[C@H](C)[C@@H]2C2=CC[C@@H]4[C@@]5(C)C/C(=C/c6cccnc6)C(=O)C(C)(C)[C@@H]5CC[C@@]4(C)[C@]2(C)CC3)CC1` is ___
[out] NO

[in] Fill in: this test's call for `CN(CCCNC(=O)Cc1ccc2ccc3cccc4ccc1c2c34)CCCNc1cc(-c2ccc3ccccc3c2)nc2ccccc12` is ___
[out] YES

[in] Fill in: this test's call for `CN1CCN(C(=O)[C@@]2(C)CC[C@]3(C)CC[C@]4(C)C(=CC[C@@H]5[C@@]6(C)CCC(=O)NC(C)(C)[C@@H]6CC[C@]54C)[C@@H]3C2)CC1` is ___
[out] NO

[in] Fill in: this test's call for Cc1nc2c(c(=O)[nH]1)C(c1ccccc1)c1ccc3ccccc3c1O2 (stereo not drawn) is ___
[out] NO

[in] Fill in: this test's call for `[2H]C([2H])([2H])Oc1ccc(F)cc1/C=C/C(=O)/C=C(/C=C/c1cc(F)ccc1OC([2H])([2H])[2H])OB(F)F` is ___
[out] NO

[in] Fill in: this test's call for `COc1cc(Cl)c(C)cc1NC(=O)c1cc2ccccc2cc1O` is ___
[out] YES
